Measured values drawn from the Human Domainome abundance scans (Beltran et al. 2025) for this set.

Quick reference: abundance fitness of the listed items.
B1: Nuclear receptor subfamily 4 group A member 2, residues 260 to 336; numbered along this chain, P43354 (parent)
chain: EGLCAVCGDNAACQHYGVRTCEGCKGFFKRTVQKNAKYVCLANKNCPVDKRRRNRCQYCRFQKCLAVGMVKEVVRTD

variants of: B1; experiment: abundance fitness (aPCA) (normalised: wild type 0, dead -1); higher = more abundant; growth selection in yeast, the domain comes from the species named; settings: Homo sapiens
Respond with the number and no other words.

>  <primary_sequence>
EGLCAVCGDNAACQHYGVRTCEGCKGFAKRTVQKNAKYVCLANKNCPVDKRRRNRCQYCRFQKCLAVGMVKEVVRTD [F28A]

>  <observed_value>
-0.1

$$$$
>  <primary_sequence>
EGLCAVCGDNAACQHYGVRTCEGCKGFFKRTVQKNAKYVCLANKNCPVDKRRRNRCQYCRFQKCLAVGMVKEVARTD [V74A]

>  <observed_value>
-0.1

$$$$

Okay, now this variant:
Lab book: abundance fitness of EGLCAVCGDNAACQHYGVRTCEGCKGFFKRTVQKNAKYVCLANKNCPVDKRRRNRCQYCRFQKCLAVGMVKEVVRTL [D77L] noted as -0.101
